- experimentalTarget: Aromatase (Homo sapiens) (UniProt P11511)
- Sequence (P11511 whole entry, looked up): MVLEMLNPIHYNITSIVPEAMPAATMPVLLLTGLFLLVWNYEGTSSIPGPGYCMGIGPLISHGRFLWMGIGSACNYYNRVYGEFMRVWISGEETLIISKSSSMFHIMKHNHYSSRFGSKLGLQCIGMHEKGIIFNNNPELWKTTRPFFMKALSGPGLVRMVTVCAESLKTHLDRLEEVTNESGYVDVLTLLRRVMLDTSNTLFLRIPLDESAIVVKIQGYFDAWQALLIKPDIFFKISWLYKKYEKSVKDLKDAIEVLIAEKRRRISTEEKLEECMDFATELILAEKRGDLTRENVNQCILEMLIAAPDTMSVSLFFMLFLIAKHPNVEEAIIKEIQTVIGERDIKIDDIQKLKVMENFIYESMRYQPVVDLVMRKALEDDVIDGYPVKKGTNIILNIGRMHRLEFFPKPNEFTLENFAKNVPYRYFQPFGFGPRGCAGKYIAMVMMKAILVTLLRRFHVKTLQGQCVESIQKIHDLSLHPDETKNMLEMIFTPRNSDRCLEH
- methodDescription: qHTS assay to identify aromatase inhibitors (AID 743083); note: nearly all actives have a fitted effect of over 55% in size
- appliedConditions: MCF-7 aro ERE, testosterone-driven ERE luciferase, 24 h; series mostly up to 70.3 µM
Inconclusive results are not listed. Calls of active or inactive are those of the source. Calls come from the whole dose curve; as a rule, active = well fitted inhibition curve with a large enough effect in the repeat runs; inconclusive = weak or mixed curves; inactive = no such curve, though single readings can be large or run the other way.
assayEndpoint: outcome

Some compounds with recorded outcome:
[[record]]
compound = "Cc1ccc(C)c(N)c1"
testresult = "inactive"

[[record]]
compound = "CCN(CCCc1ccccc1)CCCc1ccccc1"
testresult = "inactive"

[[record]]
compound = "CN1CCN(C2=Nc3ccccc3Oc3ccc(Cl)cc32)CC1"
testresult = "inactive"

[[record]]
compound = "CC1=CC(=O)CC(C)(C)C1=O"
testresult = "inactive"

[[record]]
compound = "CCC(=O)Nc1ccc(O)cc1"
testresult = "inactive"

[[record]]
compound = "CC(C)CC(=O)OCc1ccccc1"
testresult = "inactive"

[[record]]
compound = "CCN[C@H]1CN(CCCOC)S(=O)(=O)c2sc(S(N)(=O)=O)cc21"
testresult = "inactive"

[[record]]
compound = "CCCCCCCCOC(=O)CCCCCCCCC(=O)OCCCCCCCC"
testresult = "inactive"

[[record]]
compound = "Cc1ccc(C(C)C)cc1O"
testresult = "inactive"

[[record]]
compound = "COC(=O)c1ccc(OC)cc1"
testresult = "inactive"


Each of the following entries comes with a recorded value; kindly state outcome for each.
1. CC(C)(C)c1cccc(O)c1
2. O=c1[nH]cnc2c1ncn2[C@@H]1O[C@H](CO)[C@@H](O)[C@H]1O
3. CC/C=C\CCOC(=O)CCCCC
4. COC(=O)C(C)O (centres undefined)

inactive
inactive
inactive
inactive

---

- methodDescription: qHTS assay for identifying genotoxic compounds that show differential cytotoxicity against isogenic chicken DT40 cell lines with known DNA damage response pathways - Rad54/Ku70 mutant cell line (AID 743015); note: nearly all actives have a fitted effect of over 60% in size
- appliedConditions: DT40 Rad54/Ku70 mutant viability, CellTiter-Glo, 40 h; series mostly up to 66.8 µM
- Source text: National Center for Advancing Translational Sciences [NCATS] NIH Chemical Genomics Center [NCGC] U.S. Environmental Protection Agency [EPA] National Institutes of Environmental Health Sciences [NIEHS] National Toxicology Program [NTP] U.S. Food and Drug Administration [FDA] DNA repair pathways play a critical role in cellular homeostasis by repairing DNA damage induced by endogenous processes and xenobiotics. […]
Records with an inconclusive call do not appear. Active and inactive are the calls of the source. Calls follow the shape of the dose curve; as a rule, active = well fitted cell-killing curve with a large enough effect in the repeat runs; inconclusive = weak or mixed curves; inactive = no such curve, though single readings can be large or run the other way.
Outcomes you can answer with include only these: active, inactive

Example entries and their recorded answers appear below.
[[record]]
molecule = "C=CCc1cc(OC)c(O)c(C(=O)NCCO)c1"
assignedlabel = "inactive"

[[record]]
molecule = "C=CC1CO1 (configuration not stated)"
assignedlabel = "inactive"

[[record]]
molecule = "CCCN(CCC)C(=O)C(CCC(=O)O)NC(=O)c1ccccc1 (configuration not stated)"
assignedlabel = "inactive"

[[record]]
molecule = "O=c1[nH]c(=O)n([C@H]2C[C@H](O)[C@@H](CO)O2)cc1C(F)(F)F"
assignedlabel = "active"

[[record]]
molecule = "CCCCCCCCCC/C=C/C#N"
assignedlabel = "inactive"

[[record]]
molecule = "CC(=O)N[C@@H](CC(C)C)C(=O)O"
assignedlabel = "inactive"


API: the following record is the query input.
I'd appreciate the recorded outcome for CC(C)c1ccccc1 from this test. inactive
